tested on: West Nile virus; experiment: Inhibition of West Nile virus NS2B-NS3 protease expressed in Escherichia coli BL 21 (DE3) using Abz-Gly-Leu-Lys-Arg-Gly-Gly-3-(NO2)Tyr as substrate at 50 uM after 15 mins
Output true for inhibition not less than 90%; output false otherwise.

Consider the worked cases shown below.
CCCC[C@H](NC(=O)[C@H](CCCCN)NC(=O)[C@H](CCCNC(=N)N)NC(=O)c1ccc(/C=C2\SC(=O)N(CC)C2=O)cc1)C(N)=O
false
CCCC[C@H](NC(=O)[C@H](CCCCN)NC(=O)[C@H](CCCNC(=N)N)NC(=O)c1ccc(/C=C2\SC(=O)N(C3CCCC3)C2=O)cc1)C(N)=O
false
CCCC[C@H](NC(=O)[C@H](CCCCN)NC(=O)[C@H](CCCNC(=N)N)NC(=O)c1ccc(/C=C2\SC(=S)N(Cc3ccc(C)cc3)C2=O)cc1)C(N)=O
true
CCCC[C@H](NC(=O)[C@H](CCCCN)NC(=O)[C@H](CCCNC(=N)N)NC(=O)c1ccc(/C=C2\SC(=S)N(CCc3ccccc3)C2=O)cc1)C(N)=O
true

In the following, a different compound is considered.
Threshold query (inhibition >= 90%) on CCCC[C@H](NC(=O)[C@H](CCCCN)NC(=O)[C@H](CCCNC(=N)N)NC(=O)c1cccs1)C(N)=O
false

====

tested on: West Nile virus; assay: Inhibition of West Nile virus NS2B-NS3 protease expressed in Escherichia coli BL 21 (DE3) using Abz-Gly-Leu-Lys-Arg-Gly-Gly-3-(NO2)Tyr as substrate at 50 uM after 15 mins
molecules and their reported inhibition
Give just the numeric value; % need not be written.

CCCC[C@H](NC(=O)[C@H](CCCCN)NC(=O)[C@H](CCCNC(=N)N)NC(=O)c1ccc(/C=C2\SC(=S)N(C3CC3)C2=O)cc1)C(N)=O
46.4

Entry CCCC[C@H](NC(=O)[C@H](CCCCN)NC(=O)[C@H](CCCNC(=N)N)NC(=O)c1ccc(/C=C2\NC(=S)N(Cc3ccccc3)C2=O)cc1)C(N)=O : reported inhibition = ?
29.2

Entry CCCC[C@H](NC(=O)[C@H](CCCCN)NC(=O)[C@H](CCCNC(=N)N)NC(=O)c1ccc(/C=C/C(N)=O)cc1)C(N)=O : reported inhibition = ?
15.6

Entry CCCC[C@H](NC(=O)[C@H](CCCCN)NC(=O)[C@H](CCCNC(=N)N)NC(=O)[C@H](Cc1ccccc1)N1C(=O)/C(=C/c2ccc(OC)c(OC)c2)SC1=S)C(N)=O : reported inhibition = ?
25

Entry CCCC[C@H](NC(=O)[C@H](CCCCN)NC(=O)[C@H](CCCNC(=N)N)NC(=O)c1ccc(/C=C2\SC(=S)N(c3ccc(Cl)cc3)C2=O)cc1)C(N)=O : reported inhibition = ?
53.6

Entry CCCC[C@H](NC(=O)[C@H](CCCCN)NC(=O)[C@H](CCCNC(=N)N)NC(=O)c1ccc(/C=C2\SC(=O)N(CCCC)C2=O)cc1)C(N)=O : reported inhibition = ?
52.4

Entry CCCC[C@H](NC(=O)c1ccc(/C=C2\SC(=O)N(Cc3ccccc3)C2=O)cc1)C(=O)N[C@@H](CCCCN)C(=O)N[C@@H](CCCNC(=N)N)C(N)=O : reported inhibition = ?
60.3

Entry CCCC[C@H](NC(=O)[C@H](CCCCN)NC(=O)[C@H](CCCNC(=N)N)NC(=O)c1cccc(/C=C2\SC(=S)NC2=O)c1)C(N)=O : reported inhibition = ?
34.6
